Experiment: Protein binding in CD1 mouse plasma assessed as unbound fraction at 1 mg/kg, po administered as bolus dose
Type: ADME, organism-based
Readout kind: fraction unbound

Incoming: What value of fraction unbound has been recorded for this entry: CCN1CC(C(=O)NC(C)CCc2ccc(Cl)c(Cl)c2)=C(O)C1=O (stereo in doubt; 7c)
Outgoing: 0.023

====

Experiment: Total AUC in CD1 mouse at 1 mg/kg, po administered as bolus dose
Assay type: ADME, organism-based
Set-up: dose 1 mg/kg, route oral, time AUCmax
Conditions: in vivo
As shown below, each of these compounds has a reported AUC value.
Please give a number only; it is taken to be in µM·h.

See these solved cases before continuing.
CCN1CC(C(=O)NC(C)CCc2ccc(Cl)c(Cl)c2)=C(O)C1=O (stereo in doubt; 7c)
292
Cn1ccc(C(=O)NCCCc2ccc(Cl)c(Cl)c2)c(O)c1=O
16

// moving on: another record for AUC
Incoming: Look up AUC: `CN1CC(C(=O)NCCCc2ccc(Cl)c(Cl)c2)=C(O)C1=O`
Outgoing: 18

====

Assay: Protein binding in hamster plasma at 50 mg/kg, po qd for 7 days measured 6 hrs post dose on day 5
Format: ADME, organism-based
Conditions: cricetinae, read-out: PPB (converted)
Readout kind: fraction unbound at 6 h
Give the figure by itself; no unit, no explanation.

Incoming: Given the entry CCN1CC(C(=O)NC(C)CCc2ccc(Cl)c(Cl)c2)=C(O)C1=O (stereo in doubt; 7c) , report its measured fraction unbound at 6 h.
Outgoing: 0.016

====

Recorded measurements of pIC50, one per entry
Biological target: UniProtKB P11150
Sequence (P11150 whole entry): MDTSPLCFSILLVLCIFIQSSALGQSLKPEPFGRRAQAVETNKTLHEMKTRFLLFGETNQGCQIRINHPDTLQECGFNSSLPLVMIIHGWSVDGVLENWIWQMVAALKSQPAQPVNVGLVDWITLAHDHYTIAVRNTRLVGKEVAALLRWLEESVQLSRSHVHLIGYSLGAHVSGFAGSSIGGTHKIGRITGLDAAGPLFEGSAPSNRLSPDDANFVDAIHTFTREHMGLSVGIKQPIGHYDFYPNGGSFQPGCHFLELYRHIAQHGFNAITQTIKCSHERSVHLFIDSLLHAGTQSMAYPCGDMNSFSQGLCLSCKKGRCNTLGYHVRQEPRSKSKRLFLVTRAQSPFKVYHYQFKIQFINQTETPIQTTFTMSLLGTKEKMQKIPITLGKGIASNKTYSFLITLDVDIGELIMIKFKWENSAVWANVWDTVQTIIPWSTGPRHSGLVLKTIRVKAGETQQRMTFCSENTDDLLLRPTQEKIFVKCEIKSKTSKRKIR
Experiment: Inhibition of recombinant human HL expressed in African green monkey COS7 cells using HDL as substrate pretreated for 10 mins followed by substrate addition and measured after 30 mins by LC/MS/MS analysis
Just the number, please; pIC50 means minus log10 of the concentration in mol/L.

Cn1ccc(C(=O)NCCCc2ccc(Cl)c(Cl)c2)c(O)c1=O
7.80

Turning now to a further record.
Incoming: Sample `CN1CC(C(=O)NCCCc2ccc(Cl)c(Cl)c2)=C(O)C1=O` — what was its pIC50?
Outgoing: 7.12

====

Assay: Tmax in CD1 mouse at 1 mg/kg, po administered as bolus dose
Type: ADME, organism-based
Conditions: in vivo
Readout kind: Tmax
Express your answer as a number followed by its unit.

Incoming: What value of Tmax has been reported for the following molecule? CCN1CC(C(=O)NC(C)CCc2ccc(Cl)c(Cl)c2)=C(O)C1=O (stereo in doubt; 7c)
Outgoing: 30 min

====

Experiment: Cmax in C57BL/6J mouse at 50 mg/kg, po administered once daily for 5 days measured 6 hrs post last dose
Format: ADME, organism-based
Design: dose 50 mg/kg, route oral
Conditions: in vivo
Readout kind: Cmax (µM)
Please state the figure in µM; there is no need to write the unit.

Incoming: I have this compound here, CCN1CC(C(=O)NC(C)CCc2ccc(Cl)c(Cl)c2)=C(O)C1=O (stereo in doubt; 7c) , and I need its recorded Cmax.
Outgoing: 238

====

Target: Endothelial lipase (Homo sapiens, UniProt Q9Y5X9)
Assay: Inhibition of endothelial lipase in human HT1080 cells using HDL as substrate pretreated for 10 mins followed by substrate addition and measured after 30 mins by LC/MS/MS analysis
Assay type: cell-based
Assign labels as follows, please: T for IC50 below 2000 nM; F for IC50 equal to or exceeding 2000 nM.

CS(=O)(=O)NC(=O)CCN1CC(C(=O)NCCCc2ccc(Cl)c(Cl)c2)=C(O)C1=O
T
CCN1CC(C(=O)NCCCc2ccc(Cl)c(Cl)c2)=C(O)C1=O
F
O=C(NCCCc1ccc(Cl)c(Cl)c1)C1=C(O)C(=O)N(CCCN2CCCC2=O)C1
F
CN1C(=O)C(O)=C(C(=O)NCCCc2ccc(Cl)c(Cl)c2)C1C1CC1 (stereo not given)
F
CCN1CC(C(=O)NC(C)CCc2ccc(Cl)c(Cl)c2)=C(O)C1=O (racemic)
T
CN1CC(C(=O)NCCCc2ccc(Cl)c(Cl)c2)=C(O)C1=O
T

Incoming: Dear reviewer, please state whether CCN1CC(C(=O)NC(C)CCc2ccc(Cl)c(Cl)c2)=C(O)C1=O (stereo in doubt; 7d) has IC50 strictly beneath 2000 nM.
Outgoing: T

Incoming: Strictly below 2000 nM in IC50? `CCN1CC(C(=O)NCCCc2ccc(Cl)c(Cl)c2)=C(NCCCN2CCCCC2)C1=O`
Outgoing: F

Incoming: IC50 under 2000 nM? Item: `CCN1CC(C(=O)NCCCc2ccc(Cl)c(Cl)c2)=C(NCCc2ccncc2)C1=O`
Outgoing: F

Incoming: Please indicate whether the reported IC50 of `O=C(NCCCc1ccc(Cl)c(Cl)c1)C1=C(O)C(=O)N(CCOc2ccccc2)C1` is strictly below 2000 nM.
Outgoing: T

Incoming: State whether 2000 nM exceeds IC50 recorded for `CCN1CC(C(=O)NCCCc2ccc(Cl)c(Cl)c2)=C(NCCOC(C)C)C1=O` .
Outgoing: T

Incoming: Strictly below 2000 nM in IC50? `CCN1CC(C(=O)NCCCc2ccc(Cl)c(Cl)c2)=C(NC)C1=O`
Outgoing: F

====

Target: Endothelial lipase (Homo sapiens, UniProt Q9Y5X9)
Experiment: Inhibition of endothelial lipase in human HT1080 cells using PED-A1 containing DMPG vesicles as substrate pretreated for 20 mins followed by substrate addition and measured every 20 secs for 10 mins by fluorescence assay
Format: cell-based
// boundary case: IC50 equal to 100 nM maps to not met; strictly smaller maps to met

Some solved entries appear below for comparison.
CN1CC(C(=O)NCCCc2ccccc2)=C(O)C1=O
not met
CCN1CC(C(=O)NCCCc2ccc(Cl)c(Cl)c2)=C(NCCc2ccncc2)C1=O
met
CN1C(=O)C(O)=C(C(=O)NCCCc2ccc(Cl)c(Cl)c2)C1c1ccccc1Cl (stereo not drawn)
met
CN1CC(C(=O)NCCc2ccc(Cl)c(Cl)c2)=C(O)C1=O
not met

Incoming: Below 100 nM on IC50? Entry CN1C(=O)C(O)=C(C(=O)NCCCc2ccc(Cl)c(Cl)c2)C1CC(C)(C)C (stereo not drawn)
Outgoing: met

====

Target: UniProtKB Q9Y5X9
Test: Inhibition of endothelial lipase in human HT1080 cells using HDL as substrate pretreated for 10 mins followed by substrate addition and measured after 30 mins by LC/MS/MS analysis
Type: cell-based
Readout kind: IC50 (nM)
The response must be a number in nM with no trailing unit.

Examples with their reported IC50 follow.
CN1C(=O)C(O)=C(C(=O)NCCCc2ccc(Cl)c(Cl)c2)C1CC(C)(C)C (stereo not drawn)
1770
CCN1CC(C(=O)NC(C)CCc2ccc(Cl)c(Cl)c2)=C(O)C1=O (stereo in doubt; 7c)
218

Alright, here's another molecule for you.
Incoming: Checklist item: IC50 tested on UniProtKB Q9Y5X9, entry CN1C(=O)C(O)=C(C(=O)NCCCc2ccc(Cl)c(Cl)c2)C1c1ccccc1Cl (stereo not drawn) , value?
Outgoing: 5750

====

Target: Endothelial lipase (Homo sapiens, UniProt Q9Y5X9)
Sequence (Q9Y5X9 whole entry): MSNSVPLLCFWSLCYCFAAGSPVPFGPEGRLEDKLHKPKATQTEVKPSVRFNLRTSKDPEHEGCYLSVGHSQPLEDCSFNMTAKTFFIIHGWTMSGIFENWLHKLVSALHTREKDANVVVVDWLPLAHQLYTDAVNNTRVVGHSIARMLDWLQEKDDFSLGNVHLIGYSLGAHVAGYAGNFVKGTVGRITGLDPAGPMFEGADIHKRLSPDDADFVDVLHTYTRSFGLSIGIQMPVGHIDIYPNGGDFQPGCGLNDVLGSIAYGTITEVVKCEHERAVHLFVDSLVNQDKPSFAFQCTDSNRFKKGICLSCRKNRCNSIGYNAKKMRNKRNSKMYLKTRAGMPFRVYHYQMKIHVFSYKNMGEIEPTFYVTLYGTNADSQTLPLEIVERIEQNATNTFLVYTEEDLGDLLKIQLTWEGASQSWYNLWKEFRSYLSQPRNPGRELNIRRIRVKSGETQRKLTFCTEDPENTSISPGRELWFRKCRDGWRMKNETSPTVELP
Test: Inhibition of endothelial lipase in human HT1080 cells using PED-A1 containing DMPG vesicles as substrate pretreated for 20 mins followed by substrate addition and measured every 20 secs for 10 mins by fluorescence assay
Type: cell-based
Binning scheme for IC50: lo: < 30 nM; med: ≥ 30 nM and < 100 nM; hi: ≥ 100 nM

CCN1CC(C(=O)NC(C)CCc2ccc(Cl)c(Cl)c2)=C(O)C1=O (racemic)
med
CN1CC(C(=O)NCCCc2ccc(Cl)c(Cl)c2)=C(O)C1=O
med
CCN1CC(C(=O)NC(C)CCc2ccc(Cl)c(Cl)c2)=C(O)C1=O (stereo in doubt; 7d)
hi
CCN1CC(C(=O)NCCCc2ccc(Cl)c(Cl)c2)=C(NCCCN2CCCCC2)C1=O
lo
CN1C(=O)C(O)=C(C(=O)NCCCc2ccc(Cl)c(Cl)c2)C1C1CC1 (stereo not drawn)
med
CCN1CC(C(=O)NC(C)CCc2ccc(Cl)c(Cl)c2)=C(O)C1=O (stereo in doubt; 7c)
hi
Cn1ccc(C(=O)NCCCc2ccc(Cl)c(Cl)c2)c(O)c1=O
med
CCN1CC(C(=O)NCCCc2ccc(Cl)c(Cl)c2)=C(NC)C1=O
lo
O=C(NCCCc1ccc(Cl)c(Cl)c1)C1=C(O)C(=O)N(CCN2CCOCC2)C1
hi
CCN1CC(C(=O)NCCCc2ccc(Cl)c(Cl)c2)=C(NCCOC(C)C)C1=O
lo

Incoming: Where would `O=C(NCCCc1ccc(Cl)c(Cl)c1)C1=C(O)C(=O)N(CCCN2CCCC2=O)C1` land among the classes by reported IC50?
Outgoing: lo

Incoming: Class (by measured IC50) for `CS(=O)(=O)NC(=O)CCN1CC(C(=O)NCCCc2ccc(Cl)c(Cl)c2)=C(O)C1=O`
Outgoing: med
